- Test system: Group A Streptococcus UMAA2166 viability, BacTiterGlo luminescence, 6 h
- method-notes: GAS UMAA2166 growth inhibition – luminescence, BacTiterGlo, counter-screen for streptokinase expression inhibitor project, dose response (AID 1915)
Inconclusive results are not listed.
recorded-metric: pIC50
// pIC50: -log10(molar conc.)

CNC(CC(C)C)C(=O)NC1C(=O)NC(CC(N)=O)C(=O)NC2C(=O)NC3C(=O)NC(C(=O)NC(C(=O)O)c4cc(O)cc(O)c4-c4cc3ccc4O)C(O)c3ccc(c(Cl)c3)Oc3cc2cc(c3OC2OC(CO)C(O)C(O)C2OC2CC(C)(N)C(O)C(C)O2)Oc2ccc(cc2Cl)C1O (configuration not stated)
6.47

Please turn your attention to the following entry.
Task: Quick one: pIC50 of CN(C)c1ccnc2c[cH-]cc12.[Fe].c1ccc(-[c-]2[c-](-c3ccccc3)[c-](-c3ccccc3)[c-](-c3ccccc3)[c-]2-c2ccccc2)cc1 (configuration not stated) ?
Result: 5.06

meta.source: PubChem BioAssay AID1915
